Source listed as patent US20210380675A1.

Target: T1, cynomolgus IL-36α, truncated (cynomolgus macaque (Macaca fascicularis), UniProt Q9UHA7 14-158 (human entry), limits assumed)
T1 construct: Untagged after removal of the His-SUMO tag; also called cynomolgus IL-36 alpha; cyIL-36alpha
T1 chain: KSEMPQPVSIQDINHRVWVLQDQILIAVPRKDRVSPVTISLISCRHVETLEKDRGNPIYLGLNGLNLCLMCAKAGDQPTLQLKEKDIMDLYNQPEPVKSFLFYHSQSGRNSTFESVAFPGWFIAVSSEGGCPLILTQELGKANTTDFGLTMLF
Assay: SPR, Biacore, 1:1 Langmuir fit
Measure: pKd
Just the number, please; pKd means minus log10 of the concentration in mol/L.

// worked examples, pKd included
144D464A (antibody, V domains shown, Mouse monoclonal from hybridoma; mouse IgG heavy and lambda light chain; also called mouse antibody 144D464A) VH: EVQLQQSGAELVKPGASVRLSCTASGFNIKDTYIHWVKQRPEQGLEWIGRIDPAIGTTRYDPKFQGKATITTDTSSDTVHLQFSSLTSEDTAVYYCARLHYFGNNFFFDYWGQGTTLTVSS VL: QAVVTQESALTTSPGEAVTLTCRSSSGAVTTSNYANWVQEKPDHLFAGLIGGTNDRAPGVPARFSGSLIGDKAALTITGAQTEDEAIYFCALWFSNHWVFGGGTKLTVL ... 9.14
144D464A LV9are HV10b (antibody, V domains shown, Humanized) VH: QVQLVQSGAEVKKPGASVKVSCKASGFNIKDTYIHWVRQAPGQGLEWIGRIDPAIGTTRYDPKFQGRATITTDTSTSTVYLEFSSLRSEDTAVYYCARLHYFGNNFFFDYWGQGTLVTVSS VL: QAVVTQEPSLTVSPGGTVTLTCRSSSGAVTTSNYANWVQEKPGQLFAGLIGGTNDRAPGVPARFSGSLLGGKAALTLSGAQPEDEADYFCALWFSNHWVFGGGTKLTVL ... 8.92
144L249B LV7a HV11 (antibody, V domains shown, Humanized) VH: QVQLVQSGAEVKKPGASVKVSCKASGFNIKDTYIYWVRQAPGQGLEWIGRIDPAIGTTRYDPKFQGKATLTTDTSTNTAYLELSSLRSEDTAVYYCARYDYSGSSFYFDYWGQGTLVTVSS VL: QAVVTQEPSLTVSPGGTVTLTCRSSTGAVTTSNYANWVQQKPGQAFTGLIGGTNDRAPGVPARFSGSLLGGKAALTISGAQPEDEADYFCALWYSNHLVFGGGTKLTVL ... 9.00
144L249B (antibody, V domains shown, Mouse monoclonal from hybridoma; mouse IgG heavy and lambda light chain; also called mouse antibody 144L249B) VH: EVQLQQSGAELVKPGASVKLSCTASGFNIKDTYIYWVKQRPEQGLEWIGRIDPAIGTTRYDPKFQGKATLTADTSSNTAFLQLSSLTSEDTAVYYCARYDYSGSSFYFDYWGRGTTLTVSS VL: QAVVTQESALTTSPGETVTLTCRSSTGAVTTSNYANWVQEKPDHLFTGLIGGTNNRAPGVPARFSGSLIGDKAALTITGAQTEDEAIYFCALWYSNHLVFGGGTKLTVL ... 8.94

In: Param item = 144L249B LV9 HV11 (antibody, V domains shown, Humanized) VH: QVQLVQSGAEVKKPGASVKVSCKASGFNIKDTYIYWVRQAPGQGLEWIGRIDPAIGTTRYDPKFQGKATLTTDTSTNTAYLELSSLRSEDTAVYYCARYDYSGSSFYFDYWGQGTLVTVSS VL: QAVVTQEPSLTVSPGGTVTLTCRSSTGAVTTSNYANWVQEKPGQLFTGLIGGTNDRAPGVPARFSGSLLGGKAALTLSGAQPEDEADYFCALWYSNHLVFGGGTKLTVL ; retrieve measured pKd.
Out: 9.03
